IC50 values, listed per item
# Target or test system: nAChRs comprised of α4 and β2 subunits (Rattus norvegicus, UniProt P09483+P12390)
# Procedure text: In vitro inhibition of 3H-cytisine binding
# Procedure: In Vitro Inhibition of ^3H-cytisine Binding The predominant subtype with high affinity for nicotine is comprised of α4 and β2 subunits. nAChRs of the latter type can selectively be labelled by the nicotine agonist ^3H-cytisine. […] Assay: Aliquots of 500 μl homogenate are added to 25 μl of test solution and 25 μl of ^3H-cytisine (1 nM, final concentration), mixed and incubated for 90 min at 2° C. Non-specific binding is determined using (−)-nicotine (100 μM, final concentration). […]

Worked set:
Compound | Target or test system | IC50
CN1C2C=C(c3cncc(-c4cccnc4)c3)CC1CCC2.O=C(O)/C=C/C(=O)O (racemic) | nAChRs comprised of α4 and β2 subunits (Rattus norvegicus, UniProt P09483+P12390) | 13 nM
CN1C2C=C(c3ccoc3)CC1CCC2.O=C(O)/C=C/C(=O)O (racemic) | nAChRs comprised of α4 and β2 subunits (Rattus norvegicus, UniProt P09483+P12390) | 2000 nM
COc1ccc(C2=CC3CCCC(C2)N3C)cn1 (racemic) | nAChRs comprised of α4 and β2 subunits (Rattus norvegicus, UniProt P09483+P12390) | 2000 nM
CCN1C2C=C(c3cccnc3)CC1CCC2.O=C(O)/C=C/C(=O)O (racemic) | nAChRs comprised of α4 and β2 subunits (Rattus norvegicus, UniProt P09483+P12390) | 1800 nM

Next compound, IC50 to be filled in.
Task: Observed IC50 on nAChRs comprised of α4 and β2 subunits (Rattus norvegicus, UniProt P09483+P12390) for CN1C2C=C(c3cccn3C)CC1CCC2 (racemic) , please.
Output: 1800 nM

====

# Target or test system: nAChRs comprised of α4 and β2 subunits (Rattus norvegicus, UniProt P09483+P12390)
# Procedure text: In vitro inhibition of 3H-cytisine binding
# Condition set: rat cerebral cortex homogenate, 1 nM 3H-cytisine, 90 min at 2° C.; read-out: 3H-cytisine IC50
Readout name: pIC50
Just so you know, pIC50 here is -log10 of the concentration in molar units; reply with that number alone.

Take a look at these entries with their results.
Compound | pIC50
CN1C2C=C(c3cc4ccccc4s3)CC1CCC2 (racemic) | 3.55
CN1C2C=C(c3cnc4ccccc4c3)CC1CCC2.O=C(O)/C=C/C(=O)O (racemic) | 6.00

Field: next compound
Task: If you can, please state the reported pIC50 value of C1=C(c2cccnc2)CC2CCCC1N2 (racemic) [Compound 11c] .
Output: 8.35

====

Form field: IC50 (one value per entry).
# Target or test system: α4β2 subtype of nicotinic receptors (neuronal nicotinic receptors) (Rattus norvegicus, UniProt P09483+P12390)
# Construct: The forebrain (÷cerebellum) from a male Wistar rat (150-250 g) is homogenized; from tissue; host or cells: rat forebrain (without cerebellum) homogenate (male Wistar)
# Sequence (P09483 31-630): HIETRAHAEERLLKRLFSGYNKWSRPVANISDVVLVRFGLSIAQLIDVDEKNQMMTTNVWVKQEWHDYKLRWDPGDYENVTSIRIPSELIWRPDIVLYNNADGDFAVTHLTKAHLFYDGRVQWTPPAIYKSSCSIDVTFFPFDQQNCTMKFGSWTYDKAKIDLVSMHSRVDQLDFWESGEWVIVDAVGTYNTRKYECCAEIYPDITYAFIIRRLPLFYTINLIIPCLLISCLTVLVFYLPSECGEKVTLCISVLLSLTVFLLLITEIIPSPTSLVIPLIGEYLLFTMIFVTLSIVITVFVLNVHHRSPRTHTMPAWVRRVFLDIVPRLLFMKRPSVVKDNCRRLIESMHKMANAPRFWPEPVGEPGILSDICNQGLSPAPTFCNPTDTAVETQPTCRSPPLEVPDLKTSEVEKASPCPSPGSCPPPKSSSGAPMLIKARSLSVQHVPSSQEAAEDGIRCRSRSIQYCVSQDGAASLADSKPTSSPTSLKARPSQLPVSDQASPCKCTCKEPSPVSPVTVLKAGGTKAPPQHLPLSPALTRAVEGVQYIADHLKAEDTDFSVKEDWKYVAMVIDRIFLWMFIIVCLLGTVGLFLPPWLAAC
# Sequence (P12390 25-500): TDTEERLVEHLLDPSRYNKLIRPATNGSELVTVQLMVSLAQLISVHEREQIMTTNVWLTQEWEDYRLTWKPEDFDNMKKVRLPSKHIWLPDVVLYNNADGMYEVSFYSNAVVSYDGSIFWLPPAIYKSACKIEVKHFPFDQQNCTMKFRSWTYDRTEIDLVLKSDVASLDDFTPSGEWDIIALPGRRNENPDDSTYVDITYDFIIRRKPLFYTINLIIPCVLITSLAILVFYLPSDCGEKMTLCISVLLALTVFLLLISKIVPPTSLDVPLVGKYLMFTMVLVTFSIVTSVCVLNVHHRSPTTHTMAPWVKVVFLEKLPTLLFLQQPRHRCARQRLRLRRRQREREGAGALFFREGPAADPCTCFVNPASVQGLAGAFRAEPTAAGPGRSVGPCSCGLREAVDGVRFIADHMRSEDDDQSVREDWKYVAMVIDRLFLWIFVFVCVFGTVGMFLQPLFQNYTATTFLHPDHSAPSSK
# Procedure text: In vitro inhibition of 3H-epibatidin binding

Molecule | IC50
CN1C2C=C(c3ccc4ccccc4c3)CC1CCC2 (racemic) [Compound 8c] | > 300000 nM
CCN1C2C=C(c3cccnc3)CC1CCC2.O=C(O)/C=C/C(=O)O (racemic) [Compound 6a] | 1700 nM
CC(=O)C1=CC2CCCC(C1)N2C.O=C(O)/C=C/C(=O)O (racemic) [Compound 2d] | 1100 nM
COc1ccc(C2=CC3CCCC(C2)N3C)cn1 (racemic) [Compound 5b] | 17000 nM
CN1C2C=C(c3cncnc3)CC1CCC2.O=C(O)/C=C/C(=O)O (racemic) [Compound 1b] | 52 nM

Task: Entry CN1C2C=C(c3cc4ccccc4s3)CC1CCC2 (racemic) [Compound 7a] has what IC50?
Output: 280000 nM

Task: Please answer likewise for COc1cncc(C2=CC3CCCC(C2)N3)c1 (racemic) [Compound 3d]
Output: 18 nM

Task: Now this one: CN1C2C=C(c3ccoc3)CC1CCC2.O=C(O)/C=C/C(=O)O (racemic) [Compound 4c]
Output: 5000 nM

Task: Now consider CC(=O)Nc1cccc(C2=CC3CCCC(C2)N3C)c1.CC(=O)O (racemic) [Compound 2c, Acetic Acid Salt] and answer again.
Output: 290000 nM

Task: Request: CN1[C@@H]2CCC[C@H]1C[C@H](c1cccnc1)C2 [Compound 8a]
Output: 110 nM

Task: Field entry: CN1C2C=C(c3cncc(-c4cccnc4)c3)CC1CCC2.O=C(O)/C=C/C(=O)O (racemic) [Compound 2b]
Output: 240 nM

Task: Check CN1C2C=C(c3cncc(-c4ccc(Oc5ccccc5)cc4)c3)CC1CCC2.O=C(O)/C=C/C(=O)O (racemic) [Compound 4b] too.
Output: 690 nM

Task: Now consider CN1C2C=C(c3cc4ccccc4o3)CC1CCC2 (racemic) [Compound 4a] and answer again.
Output: > 300000 nM

Task: Quick one: CN1C2C=C(c3cccc(N4CCCC4)c3)CC1CCC2 (racemic) [Compound 3c]
Output: > 10000 nM

Task: Try CN1C2C=C(c3cccc([N+](=O)[O-])c3)CC1CCC2.O=C(O)/C=C/C(=O)O (racemic) [Compound 5c] next.
Output: 3900 nM

Task: Another molecule: CN1C2C=C(c3cccnc3)CC1CCC2.O=C(O)/C=C/C(=O)O (racemic) [Compound 1a]
Output: 84 nM

Task: Then this molecule: COc1cncc(C2=CC3CCCC(C2)N3C)c1 (racemic) [Compound 2a]
Output: 76 nM

Task: What would you report for C1=C(c2cccnc2)CC2CCCC1N2 (racemic) [Compound 11c] ?
Output: 46 nM

Task: Another molecule: CN1C2C=C(c3cncc(-c4ccccc4)c3)CC1CCC2 (racemic) [Compound 3a]
Output: 150 nM

Values from patent US6392045B1
